Let's look at some compounds and their measured activation.
study_target: G-protein coupled receptor 151 (Homo sapiens) (UniProt Q8TDV0)
Sequence (Q8TDV0 whole entry, looked up): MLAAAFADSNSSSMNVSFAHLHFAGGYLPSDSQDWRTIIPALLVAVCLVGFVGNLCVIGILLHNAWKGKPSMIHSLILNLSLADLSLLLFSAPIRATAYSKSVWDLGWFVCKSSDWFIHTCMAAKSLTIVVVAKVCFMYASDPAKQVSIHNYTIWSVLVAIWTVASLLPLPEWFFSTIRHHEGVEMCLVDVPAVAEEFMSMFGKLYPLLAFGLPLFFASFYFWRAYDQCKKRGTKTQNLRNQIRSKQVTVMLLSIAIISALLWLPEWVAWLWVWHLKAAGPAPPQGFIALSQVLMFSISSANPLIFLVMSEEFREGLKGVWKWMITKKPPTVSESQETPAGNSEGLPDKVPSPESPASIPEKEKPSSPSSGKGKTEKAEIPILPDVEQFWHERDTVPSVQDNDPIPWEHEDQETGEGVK
assay_remarks: GPR151 activators, triplicate retest, confirmation, cell-based, PathHunter beta-arrestin, luminescence (AID 1508609)
condition_set: GPR151 PathHunter beta-arrestin cells, 90 min, at 11.2 µM, hits give high values, % of EA-reagent control over plate median
The campaign covered roughly 6,700 compounds. Fewer than 10 were called active. A selection follows.
measurement_name: activation (%)

# compound, units_label, value
measured = [
    ("Brc1cnc(NC2CCCCC2)nc1", "%", 1.03),
    ("CCC(CC)C(=O)N1CCN(Cc2nc3sc(C)c(C)c3c(=O)[nH]2)CC1", "%", 0.36),
    ("CCc1cc2c(=O)c(-c3ccc4c(c3)OCCCO4)coc2cc1OC(=O)N1CCOCC1", "%", -0.64),
    ("CCCCc1ccc(N=Cc2nc(-c3cccc4ccccc34)oc2O)cc1", "%", -1.01),
    ("C=C(C)CSc1nc2sc3c(c2c(=O)n1-c1ccc(OC)cc1)CC(C)(C)OC3", "%", 0.13),
    ("C(=N\\N1CCN(c2ccccn2)CC1)/C1=C(N2CCOCC2)C(=C/c2ccccc2)/CC1", "%", 0.86),
    ("CCC(=O)Nc1cc(C(=O)O)ccc1C", "%", 0.34),
    ("CCCCCC(=O)N/N=C(/C)c1ccc(O)cc1O", "%", 0.98),
    ("COc1ccc(/C=C(\\C#N)C(=O)Nc2cccc(S(=O)(=O)N3CCCCC3)c2)cc1", "%", -1.24),
    ("CCC1C(=O)NCCN1Cc1ccc2c(c1)CN(Cc1c[nH]c3ccccc13)CCO2 (stereo not given)", "%", 1.68),
    ("CCOC(=O)Cc1coc(NC(=O)c2ccc(Cl)cc2)n1", "%", 1.26),
    ("CCOc1ccc(/C=C2N=C(/C=C/c3cccc(Cl)c3Cl)OC\\2=O)cc1", "%", -0.04),
    ("Cc1ccc(C)c(CN2CCC(n3nccc3NC(=O)C(C)(C)C)CC2)c1", "%", 0.69),
    ("CCc1ccc(S(=O)(=O)NCCOc2cc(N3CCOCC3)ncn2)cc1", "%", 0.53),
    ("COC(=O)C1=CN(Cc2ccc(Cl)cc2)C=C(C(=O)OC)C1c1cc(OC)c(O)c(OC)c1", "%", 0.02),
    ("C#CCOc1ccc(Br)cc1/C=C1\\NC(=S)N(C)C1=O", "%", -0.05),
    ("O=CN1CCN(CCC(=O)Nc2ccccc2)CC1", "%", 1.05),
    ("COC(=O)c1cc(NC(=O)COc2ccc([N+](=O)[O-])cc2)cc(C(=O)OC)c1", "%", 0.64),
    ("CCN1/C(=C/c2ccc3cc(C)ccc3[n+]2CC)Sc2ccc(-c3ccccc3)cc21", "%", -0.55),
    ("COC(=O)[C@@H]1CC(O)CN1C(=O)C12CC3CC(CC(C3)C1)C2 (stereo not given in full)", "%", 0.35),
    ("COc1ccc(COC(=O)NNC(=O)c2cccc(Cl)c2)cc1", "%", -0.17),
    ("CC(/C=N\\NC(=O)CSc1nc(C)cc(C)n1)=C\\c1ccccc1", "%", -1.7),
    ("CC(C(=O)NCCN1CCOCC1)n1c2ccccc2c2cn[nH]c(=O)c21 (stereo not given)", "%", -0.57),
    ("Cc1cccn2c(=O)c3cc(C(=O)NC4CCCCC4)c(=N)n(C4CCCCC4)c3nc12", "%", -0.69),
    ("Cc1nn(C)c(C)c1-c1nc2ncnc(NCCO)c2[nH]1", "%", -0.32),
    ("COc1ccc(C2C(C#N)=C(N)Oc3c2c(C)nn3-c2ccccc2)cc1 (stereo not given)", "%", 0.69),
    ("COc1ccc(N2C(=O)C3CCCN3C2c2cccc(OC)c2)cc1 (stereo not given)", "%", -1.45),
    ("COc1ccc([N+](=O)[O-])cc1NC(=O)C1CC(Cl)=CCC1C(=O)O (stereo not given)", "%", 0.92),
    ("CCOc1c(Cl)cc(CNCc2ccccc2)cc1OC", "%", -0.5),
    ("OCc1ccccc1CNc1ccc(F)cc1", "%", 0.05),
    ("c1cncc(Nc2nc(NC3CC3)c3ncn(C4CCCCC4)c3n2)c1", "%", -0.06),
    ("O=C(CN1CCOCC1)Nc1c(Cl)cc(Cl)cc1Cl", "%", 0.82),
    ("COc1ccc(OC)c(S(=O)(=O)Oc2ccc(Cl)c3cccnc23)c1", "%", 0.21),
    ("COc1ccc(C(=O)CSc2nc3sc4c(c3c(=O)n2-c2ccc(Cl)cn2)CCCC4)c(F)c1", "%", -0.67),
    ("CC(C)CC(C(=O)Nc1cccc([N+](=O)[O-])c1)N1C(=O)c2ccccc2C1=O (stereo not given)", "%", 0.6),
]

src = PubChem BioAssay AID1508609
